tested on: 817829-284-R-J1-PDC spheroids with HUVEC/MSC, viability; experiment: Anticancer human tumor 817829-284-R-J1-PDC patient-derived colon adenocarcinoma cell line growth inhibition [TAK]; details: second compound 0.3 µM; first compound 0.001 µM; active compounds read low

>  <MOLECULE>
CC(C)CC(NC(=O)C(Cc1ccccc1)NC(=O)c1cnccn1)B(O)O (centres undefined) + CC(C)NCC(C(=O)N1CCN(c2ncnc3c2C(C)CC3O)CC1)c1ccc(Cl)cc1

>  <viability, T/C / %>
100

$$$$
>  <MOLECULE>
CC(C)CC(NC(=O)CNC(=O)c1cc(Cl)ccc1Cl)B1OC(=O)CC(CC(=O)O)(C(=O)O)O1 (centres undefined) + CC(C)NCC(C(=O)N1CCN(c2ncnc3c2C(C)CC3O)CC1)c1ccc(Cl)cc1

>  <viability, T/C / %>
93.4

$$$$
>  <MOLECULE>
CC(C)n1nc(-c2ccc3oc(N)nc3c2)c2c(N)ncnc21 + CC(C)NCC(C(=O)N1CCN(c2ncnc3c2C(C)CC3O)CC1)c1ccc(Cl)cc1

>  <viability, T/C / %>
97.5

$$$$
>  <MOLECULE>
COC1CC2CCC(C)C(O)(O2)C(=O)C(=O)N2CCCCC2C(=O)OC(C(C)CC2CCC(OCCO)C(OC)C2)CC(=O)C(C)C=C(C)C(O)C(OC)C(=O)C(C)CC(C)C=CC=CC=C1C (centres undefined) + CC(C)NCC(C(=O)N1CCN(c2ncnc3c2C(C)CC3O)CC1)c1ccc(Cl)cc1

>  <viability, T/C / %>
76.7

$$$$

====

Reported viability, T/C values for the following compounds.
tested on: 817829-284-R-J1-PDC spheroids with HUVEC/MSC, viability; assay: Anticancer human tumor 817829-284-R-J1-PDC cell line growth inhibition [TAK]; details: second compound 0.3 µM; first compound 0.316 µM; active compounds read low

>  <COMPOUND>
Cc1nc(NC(=O)N2CCCC2C(N)=O)sc1-c1ccnc(C(C)(C)C(F)(F)F)c1 (centres undefined) + CC(C)NCC(C(=O)N1CCN(c2ncnc3c2C(C)CC3O)CC1)c1ccc(Cl)cc1

>  <viability, T/C [%]>
74.8

$$$$
>  <COMPOUND>
COc1c(OCCCN2CCOCC2)ccc2c3n(c(=NC(=O)c4cnc(N)nc4)nc12)CCN3 + CC(C)NCC(C(=O)N1CCN(c2ncnc3c2C(C)CC3O)CC1)c1ccc(Cl)cc1

>  <viability, T/C [%]>
2.93

$$$$
>  <COMPOUND>
CC(C)(C)c1nc(-c2cccc(NS(=O)(=O)c3c(F)cccc3F)c2F)c(-c2ccnc(N)n2)s1 + CC(C)NCC(C(=O)N1CCN(c2ncnc3c2C(C)CC3O)CC1)c1ccc(Cl)cc1

>  <viability, T/C [%]>
27.6

$$$$
>  <COMPOUND>
CCCS(=O)(=O)Nc1ccc(F)c(C(=O)c2c[nH]c3ncc(-c4ccc(Cl)cc4)cc23)c1F + CC(C)NCC(C(=O)N1CCN(c2ncnc3c2C(C)CC3O)CC1)c1ccc(Cl)cc1

>  <viability, T/C [%]>
78.3

$$$$

====

system: 817829-284-R-J1-PDC spheroids with HUVEC/MSC, viability; experiment: Anticancer human tumor 817829-284-R-J1-PDC cell line growth inhibition [TAK]; details: second compound 0.3 µM; first compound 0.01 µM; active compounds read low
# Lookup of reported viability, T/C keyed by entry

>  <COMPOUND>
COc1c(OCCCN2CCOCC2)ccc2c3n(c(=NC(=O)c4cnc(N)nc4)nc12)CCN3 + CC(C)NCC(C(=O)N1CCN(c2ncnc3c2C(C)CC3O)CC1)c1ccc(Cl)cc1

>  <viability, T/C>
47%

$$$$
>  <COMPOUND>
COC1CC2CCC(C)C(O)(O2)C(=O)C(=O)N2CCCCC2C(=O)OC(C(C)CC2CCC(OCCO)C(OC)C2)CC(=O)C(C)C=C(C)C(O)C(OC)C(=O)C(C)CC(C)C=CC=CC=C1C (stereo not given) + CC(C)NCC(C(=O)N1CCN(c2ncnc3c2C(C)CC3O)CC1)c1ccc(Cl)cc1

>  <viability, T/C>
49.9%

$$$$
>  <COMPOUND>
CC(C)CC(NC(=O)CNC(=O)c1cc(Cl)ccc1Cl)B1OC(=O)CC(CC(=O)O)(C(=O)O)O1 (stereo not given) + CC(C)NCC(C(=O)N1CCN(c2ncnc3c2C(C)CC3O)CC1)c1ccc(Cl)cc1

>  <viability, T/C>
81%

$$$$
>  <COMPOUND>
CC(C)CC(NC(=O)C(Cc1ccccc1)NC(=O)c1cnccn1)B(O)O (stereo not given) + CC(C)NCC(C(=O)N1CCN(c2ncnc3c2C(C)CC3O)CC1)c1ccc(Cl)cc1

>  <viability, T/C>
0.6%

$$$$
>  <COMPOUND>
CC(C)n1nc(-c2ccc3oc(N)nc3c2)c2c(N)ncnc21 + CC(C)NCC(C(=O)N1CCN(c2ncnc3c2C(C)CC3O)CC1)c1ccc(Cl)cc1

>  <viability, T/C>
62.4%

$$$$

====

system: 817829-284-R-J1-PDC spheroids with HUVEC/MSC, viability; assay: Anticancer human tumor 817829-284-R-J1-PDC cell line growth inhibition [TAK]; details: second compound 3 µM; first compound 0.316 µM; active = viability on the fitted dose curve at most 10% of control; inactive = the rest
Outcome codes: active, inactive

>  <COMPOUND>
CC(C)(C)c1nc(-c2cccc(NS(=O)(=O)c3c(F)cccc3F)c2F)c(-c2ccnc(N)n2)s1 + CC(C)NCC(C(=O)N1CCN(c2ncnc3c2C(C)CC3O)CC1)c1ccc(Cl)cc1

>  <ASSIGNED_LABEL>
inactive

$$$$
>  <COMPOUND>
Cc1nc(NC(=O)N2CCCC2C(N)=O)sc1-c1ccnc(C(C)(C)C(F)(F)F)c1 (centres undefined) + CC(C)NCC(C(=O)N1CCN(c2ncnc3c2C(C)CC3O)CC1)c1ccc(Cl)cc1

>  <ASSIGNED_LABEL>
inactive

$$$$
>  <COMPOUND>
COc1c(OCCCN2CCOCC2)ccc2c3n(c(=NC(=O)c4cnc(N)nc4)nc12)CCN3 + CC(C)NCC(C(=O)N1CCN(c2ncnc3c2C(C)CC3O)CC1)c1ccc(Cl)cc1

>  <ASSIGNED_LABEL>
active

$$$$
>  <COMPOUND>
CCCS(=O)(=O)Nc1ccc(F)c(C(=O)c2c[nH]c3ncc(-c4ccc(Cl)cc4)cc23)c1F + CC(C)NCC(C(=O)N1CCN(c2ncnc3c2C(C)CC3O)CC1)c1ccc(Cl)cc1

>  <ASSIGNED_LABEL>
inactive

$$$$

====

Test system: 817829-284-R-J1-PDC spheroids with HUVEC/MSC, viability
Assay: Anticancer human tumor 817829-284-R-J1-PDC cell line growth inhibition [TAK]
Conditions: second compound 30 µM; first compound 1 µM; active compounds read low
Protocol: Combinatorial screen of targeted agents with TAK-243 and ipatasertib in multi-cell type tumor spheroids […] Compounds. […] If the clinical Cmax for an agent had not been determined, the highest concentration tested was 10 microM. NCI60 Cell Culture. […] The optimal seeding densities for each of the cell lines at each time point assessed were determined prior to performing the concentration response studies. […]
Listing of entries alongside the reported viability, T/C.
OBSERVED_PROPERTY: viability, T/C (%)

>  <COMPOUND>
CC(C)(C)c1nc(-c2cccc(NS(=O)(=O)c3c(F)cccc3F)c2F)c(-c2ccnc(N)n2)s1 + CC(C)NCC(C(=O)N1CCN(c2ncnc3c2C(C)CC3O)CC1)c1ccc(Cl)cc1

>  <TARGET_OF_ASSAY>
817829-284-R-J1-PDC spheroids with HUVEC/MSC, viability

>  <VALUE_MEASURED>
3.29

$$$$
>  <COMPOUND>
CCCS(=O)(=O)Nc1ccc(F)c(C(=O)c2c[nH]c3ncc(-c4ccc(Cl)cc4)cc23)c1F + CC(C)NCC(C(=O)N1CCN(c2ncnc3c2C(C)CC3O)CC1)c1ccc(Cl)cc1

>  <TARGET_OF_ASSAY>
817829-284-R-J1-PDC spheroids with HUVEC/MSC, viability

>  <VALUE_MEASURED>
5.41

$$$$
>  <COMPOUND>
Cc1nc(NC(=O)N2CCCC2C(N)=O)sc1-c1ccnc(C(C)(C)C(F)(F)F)c1 (centres undefined) + CC(C)NCC(C(=O)N1CCN(c2ncnc3c2C(C)CC3O)CC1)c1ccc(Cl)cc1

>  <TARGET_OF_ASSAY>
817829-284-R-J1-PDC spheroids with HUVEC/MSC, viability

>  <VALUE_MEASURED>
3.84

$$$$
>  <COMPOUND>
COc1c(OCCCN2CCOCC2)ccc2c3n(c(=NC(=O)c4cnc(N)nc4)nc12)CCN3 + CC(C)NCC(C(=O)N1CCN(c2ncnc3c2C(C)CC3O)CC1)c1ccc(Cl)cc1

>  <TARGET_OF_ASSAY>
817829-284-R-J1-PDC spheroids with HUVEC/MSC, viability

>  <VALUE_MEASURED>
0.47

$$$$

Ref: PubChem BioAssay AID2060347
